Tested on: UACC-62 melanoma
Assay: NCI tumour cell line growth inhibition, 48 h; in the data active = GI50 below about 0.43 µM; inactive = the rest
Possible outcomes: active, inactive

{"molecule": "c1ccc([As]=[As]c2ccccc2)cc1 (stereo not given)", "class.label": "inactive"}
{"molecule": "COc1ccc(Cn2cc3c(c2-c2ccccc2)CCc2cnoc2-3)cc1N", "class.label": "active"}
{"molecule": "CCOC(=O)c1cnn2c3ccccc3n(S(=O)(=O)c3ccc(OC)cc3)c12", "class.label": "inactive"}
{"molecule": "O=C(N/N=C/c1cc(Cl)cc(Cl)c1[O-])c1ccccc1.O=C(N/N=C/c1cc(Cl)cc(Cl)c1[O-])c1ccccc1.[Co+2]", "class.label": "inactive"}
{"molecule": "O=S(=O)(Nc1ccc(F)c(Cl)c1)c1ccc(-c2cnc(C3CC3)o2)cc1", "class.label": "active"}

Where these numbers come from: PubChem BioAssay (NCI)
